- target or system: Recombinant human MASP2 enzyme (fragment corresponding to amino acids 297-686, C-terminal His Tag) (human, UniProt O00187 297-686)
- Sequence (O00187 other isoform, or with tags, fused parts or gaps limits assumed): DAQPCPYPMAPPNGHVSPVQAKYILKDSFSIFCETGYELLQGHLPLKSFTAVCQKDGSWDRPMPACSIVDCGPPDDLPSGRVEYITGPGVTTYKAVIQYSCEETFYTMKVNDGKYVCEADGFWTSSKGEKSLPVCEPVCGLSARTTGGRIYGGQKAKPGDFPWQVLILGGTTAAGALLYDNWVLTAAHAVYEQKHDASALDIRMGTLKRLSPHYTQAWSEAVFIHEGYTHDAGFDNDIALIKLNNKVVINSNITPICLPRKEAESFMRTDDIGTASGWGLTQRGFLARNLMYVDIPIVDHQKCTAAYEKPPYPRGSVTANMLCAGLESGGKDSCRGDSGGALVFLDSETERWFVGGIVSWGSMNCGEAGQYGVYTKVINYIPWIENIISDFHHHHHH
- test method notes: cell-based or functional assay
Bridge positions count the residues as written; N and C are the ends. Square brackets hold non-standard residues; d marks the D form. Ends that are not written are not given here. Oic = O=C(O)[C@@H]1C[C@@H]2CCCC[C@@H]2N1; tBuAla = CC(C)(C)C[C@H](N)C(=O)O; Pen = CC(C)(S)[C@H](N)C(=O)O; NMeC = CN[C@@H](CS)C(=O)O; Sar = CNCC(=O)O
I'd appreciate it if you could supply human MASP2 IC50 values for the items below.
API: value field is a number in nM; no unit string.

Please give the measured human MASP2 IC50 for this binder: [Sar]ICSRSLP[Oic]I[Pen]I[5‑Azaspiro(2.4)heptane‑1‑carboxylic acid]-OH (disulfide 3-11) [((N-Me)G)-IC+SRSLP-(Oic)-I-(Pen)+I-((5-Azaspiro[2.4]heptane-1-carboxylic acid)-OH]
57

Please give the measured human MASP2 IC50 for this binder: HICSRS[tBuAla]PPI[NMeC]I-NH2 (disulfide 3-11; N-terminus assumed; SMILES CC[C@H](C)[C@H](NC(=O)[C@@H]1CSSC[C@H](NC(=O)[C@@H](NC(=O)[C@@H](N)Cc2c[nH]cn2)[C@@H](C)CC)C(=O)N[C@@H](CO)C(=O)N[C@@H](CCCNC(=N)N)C(=O)N[C@@H](CO)C(=O)N[C@@H](CC(C)(C)C)C(=O)N2CCC[C@H]2C(=O)N2CCC[C@H]2C(=O)N[C@@H]([C@@H](C)CC)C(=O)N1C)C(N)=O) [HIC+SRS-((tBu)A)-PPI-((N-Me)C)+I-NH2]
140
